Hey, just so you know, these numbers are from patent US20260265265A1.

# Measured On: Recombinant Human ENPP-2/Autotaxin (Homo sapiens)
# Assay Explanation: LysoPLD activity measurement (autotaxin enzyme inhibition, choline release, TOOS reagent)
# Condition Info: LysoPLD inhibitory activity; substrate 14:0 LysoPC; absorbance at 555 nm
pIC50: −log10 of the molar value.
In this section we review reported pIC50 values for a set of molecules.

Check out these entries, answers already filled in.
Molecule: O=C(O)c1cccc(Cn2c(=O)n(-c3ccc(C4CCN(C5COC5)CC4)cc3)c3cc(Cl)ccc32)c1 [Example 259]
pIC50: 6.00 to 7.00
--
Molecule: CN1CCN(Cc2ccc(-n3c(=O)n(C4(c5cccc(C(=O)O)c5)CC4)c4ccc(Cl)cc43)cc2)C1=O [Example 241]
pIC50: > 8.00
--
Molecule: CN(C)C(=O)c1ccc(-n2c(=O)n(C3(c4cccc(C(=O)O)c4F)CC3)c3ccc(Cl)cc32)cc1 [Example 72]
pIC50: > 8.00

Notebook entry, Recombinant Human ENPP-2/Autotaxin (Homo sapiens) assay: pIC50 of O=C(O)c1cccc(Cn2c(=O)n(-c3ccc(C4CCN(C(=O)C5CCC5)CC4)cc3)c3c(F)c(Cl)ccc32)c1F [Example 152] = ?
7.00 to 8.00
